# SYSTEM NAME: human farnesol receptor protein hFXR (Homo sapiens)
# Construct: hexahistidine (His6)
# Sequence (Q96RI1 whole entry): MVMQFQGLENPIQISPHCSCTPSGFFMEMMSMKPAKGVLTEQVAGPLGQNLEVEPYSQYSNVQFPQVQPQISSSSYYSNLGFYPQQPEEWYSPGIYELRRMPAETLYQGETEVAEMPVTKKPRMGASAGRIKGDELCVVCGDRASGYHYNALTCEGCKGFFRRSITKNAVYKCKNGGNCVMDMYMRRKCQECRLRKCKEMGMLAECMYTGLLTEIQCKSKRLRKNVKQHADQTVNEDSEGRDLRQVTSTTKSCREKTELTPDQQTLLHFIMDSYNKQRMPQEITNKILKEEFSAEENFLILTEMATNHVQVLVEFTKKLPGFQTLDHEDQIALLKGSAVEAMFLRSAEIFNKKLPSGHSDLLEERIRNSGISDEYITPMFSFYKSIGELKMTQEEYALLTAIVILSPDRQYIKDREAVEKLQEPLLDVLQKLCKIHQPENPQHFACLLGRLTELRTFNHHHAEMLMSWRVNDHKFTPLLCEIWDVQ
# EXPERIMENT SUMMARY: AlphaScreen assay of FXR agonist activity in vitro: effect on binding between human farnesol receptor protein and its coactivator (SRC1-2)
# Assay type: biochemical
# EXPERIMENTAL CONDITIONS: hFXR 100 nM, peptide bSRC1-2 50 nM, 2 hr incubation at room temperature
Hi there, I'd appreciate the recorded EC50 for every entry that follows.

Lookup: Report measured EC50; entry is O=C(O)c1ccc2nc(N3CC4CCCC(C3)C4OCc3c(-c4c(Cl)cccc4Cl)noc3C3CC3)sc2c1 (stereo not drawn)
Found: < 100 nM

Lookup: Report measured EC50; entry is O=C(O)c1ccc(N2CCC3(CC(OCc4c(-c5c(Cl)cccc5Cl)noc4C4CC4)C3)C2)nc1 (stereo not drawn)
Found: < 100 nM

Lookup: Report measured EC50; entry is O=C(O)c1ccc2nc(N3CCC4(CC(OCc5c(-c6c(Cl)cccc6Cl)noc5C5CC5)C4)C3)sc2c1 (stereo not drawn)
Found: < 100 nM

Lookup: Report measured EC50; entry is `O=C(O)c1ccc2nc(N3CCc4ccc(OCc5c(-c6c(Cl)cccc6Cl)noc5C5CC5)cc4C3)sc2c1`
Found: 100 to 1000 nM

Lookup: Report measured EC50; entry is COc1cc(C(=O)O)cc2sc(N3CC4(CC(OCc5c(-c6c(Cl)cccc6Cl)noc5C5CC5)C4)C[C@H]3C)nc12 (stereo partly drawn)
Found: 100 to 1000 nM

Lookup: Report measured EC50; entry is O=C(O)c1ccc(N2CCC3(CC(OCc4c(-c5c(Cl)cccc5Cl)noc4C4CC4)C3)C2)cn1 (stereo not drawn)
Found: 100 to 1000 nM

Lookup: Report measured EC50; entry is O=C(O)c1cc(F)c2nc(N3CC4(CC(OCc5c(-c6c(Cl)cccc6Cl)noc5C5CC5)C4)C[C@H]3CF)sc2c1 (stereo partly drawn)
Found: 100 to 1000 nM

Lookup: Report measured EC50; entry is `O=C(O)c1ccc2nc(N3CC4(CC(OCc5c(-c6c(Cl)cccc6Cl)noc5C5CC5)C4)C3)sc2c1`
Found: < 100 nM

Lookup: Report measured EC50; entry is O=C(O)c1ccc2nc(N3CC4CCCCC(C3)C4OCc3c(-c4c(Cl)cccc4Cl)noc3C3CC3)sc2c1 (stereo not drawn)
Found: < 100 nM

Lookup: Report measured EC50; entry is `O=C(O)c1cccc(N2CC3(CC(OCc4c(-c5c(Cl)cccc5Cl)noc4C4CC4)C3)C2)c1`
Found: 100 to 1000 nM

Lookup: Report measured EC50; entry is O=C(O)c1ccc(N2CCC3(CC(OCc4c(-c5c(Cl)cccc5Cl)noc4C4CC4)C3)C2)c(F)c1 (stereo not drawn)
Found: 100 to 1000 nM

Lookup: Report measured EC50; entry is Cn1cc(C(=O)O)c2ccc(N3CCC4(CC(OCc5c(-c6c(Cl)cccc6Cl)noc5C5CC5)C4)C3)cc21 (stereo not drawn)
Found: 100 to 1000 nM

Lookup: Report measured EC50; entry is O=C(O)c1ccc2nc(N3CC4CCC(C3)C4OCc3c(-c4c(Cl)cccc4Cl)noc3C3CC3)sc2c1 (stereo not drawn)
Found: 100 to 1000 nM

Lookup: Report measured EC50; entry is `O=C(O)c1ccc2nc(N3Cc4ccc(OCc5c(-c6c(Cl)cccc6Cl)noc5C5CC5)cc4C3)sc2c1`
Found: < 100 nM

Lookup: Report measured EC50; entry is `O=C(O)c1ccc2nc(N3CCC4(CC3)CC(OCc3c(-c5c(Cl)cccc5Cl)noc3C3CC3)C4)sc2c1`
Found: < 100 nM

Lookup: Report measured EC50; entry is COc1cc(C(=O)O)cc2sc(N3CCC4(CC(OCc5c(-c6c(Cl)cccc6Cl)noc5C5CC5)C4)C3)nc12 (stereo not drawn)
Found: 100 to 1000 nM

Lookup: Report measured EC50; entry is O=C(O)c1nsc2cc(N3CCC4(CC(OCc5c(-c6c(Cl)cccc6Cl)noc5C5CC5)C4)C3)ccc12 (stereo not drawn)
Found: < 100 nM

Lookup: Report measured EC50; entry is O=C(O)c1cccc(N2CCC3(CC(OCc4c(-c5c(Cl)cccc5Cl)noc4C4CC4)C3)C2)c1 (stereo not drawn)
Found: 100 to 1000 nM

Lookup: Report measured EC50; entry is O=C(O)c1cc2ccc(N3CCC4(CC(OCc5c(-c6c(Cl)cccc6Cl)noc5C5CC5)C4)C3)cc2s1 (stereo not drawn)
Found: 100 to 1000 nM

Lookup: Report measured EC50; entry is O=C(O)c1ccc2nc(N3CC4(CC(OCc5c(-c6c(Cl)cccc6Cl)noc5C5CC5)C4)C[C@H]3CF)oc2c1 (stereo partly drawn)
Found: 100 to 1000 nM

Lookup: Report measured EC50; entry is O=C(O)c1ccc(N2CCC3(CC(OCc4c(-c5c(Cl)cccc5Cl)noc4C4CC4)C3)C2)nn1 (stereo not drawn)
Found: < 100 nM

Lookup: Report measured EC50; entry is O=C(O)c1cc(F)c2nc(N3CCC4(CC(OCc5c(-c6c(Cl)cccc6Cl)noc5C5CC5)C4)C3)sc2c1 (stereo not drawn)
Found: 100 to 1000 nM

Lookup: Report measured EC50; entry is C[C@@H]1CC2(CC(OCc3c(-c4c(Cl)cccc4Cl)noc3C3CC3)C2)CN1c1nc2ccc(C(=O)O)cc2s1 (stereo partly drawn)
Found: 100 to 1000 nM

Lookup: Report measured EC50; entry is `O=C(O)c1ccc2nc(N3CCc4cc(OCc5c(-c6c(F)cccc6F)noc5C5CC5)ccc4C3)sc2c1`
Found: < 100 nM
